B1: APBB1IP (parent)
chain: PPEPLSQVSMWDQRWQDHQPLLPI

variants of: B1; assay: protein stability index of a GFP-peptide fusion (GPS, HEK-293T) (PSI 1-6); higher = more stable; conditions: c terminus: a fixed tail appended;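 also: lentivirally expressed fusions sorted by FACS into six bins by GFP to DsRed ratio, PSI derived from sequencing read proportions per bin multiplied by bin number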
Measured property: protein stability index
Please reply with the value in numeric form only.

Q13W : 2.91
M10F : 2.94
L5F : 3
H18L : 3.09

Pending variant:
Read the entry Q7I and write its reported protein stability index.
3.07

Provenance of the data: the supplement of paper PMC10567573
